The following molecules are listed with their measured Population Healthy Nuclei (%) values.
# Test system: HEK-293T
# Assay Comment: Multiplex assay against HEK293T
# Format: toxicity, cell-based
# Setup Conditions: human, 48 h, 10 µM, compound concentration 10 uM, replicate 2
# unit: % | format: bare number

Solved entries:
Molecule	Population Healthy Nuclei (%)
O=C(O)c1cc2ccccc2c(Cc2c(O)c(C(=O)O)cc3ccccc23)c1O [PAMOIC ACID]	82
CN1CCN(c2nc3cc(C(F)(F)F)ccc3n3cccc23)CC1.O=C(O)/C=C\C(=O)O.O=C(O)/C=C\C(=O)O	77
O=C(O)Cc1ccccc1Nc1c(Cl)cccc1Cl [DICLOFENAC]	75
N#Cc1c(N)nc(SCc2csc(-c3ccc(Cl)cc3)n2)c(C#N)c1-c1ccc(OCCO)cc1 [CAPADENOSON]	73

Attention now shifts to the item below.
Query string: Item `O=C(NCCO)c1cccc(-c2cc(Nc3ccc(OC(F)(F)F)cc3)ncn2)c1` : provide Population Healthy Nuclei (%)
Result string: 72
